# Tested on: MS2 coat protein
# Assay name: apparent KD of MS2 coat protein; designed switch direction (-1 OFF switch, 1 ON switch): 1; higher = weaker reporter binding
# Assay setup: input ligand: FMN 200 uM
Reported apparent KD of MS2 coat protein values follow for various sequences
Field: numeric (nM). Do not append units.

Example cases with answers are listed next.
Macromolecule sequence	apparent KD of MS2 coat protein / nM
CGGAAACGAUGAGGAUAUGCAGAGGAUCACCCUGUAGAAGGCAAGAGAUGAGGAUAUGCAGAGGAUCACCCUGUAGAAGGCAAC [pwkr ssNG DX.4] (Eterna round: R96, puzzle: Same State NG 1)	146
GAGAGAGGGUGAGGAUAUUGAGUAAUAAUGAUACAAGAAGGCACAGACAUGAGGAUCACCCAUGUGGGAAUAAUCCAGAGAGAG [Parity 6 - Jieux - Same State NG 1] (Eterna round: R96, puzzle: Same State NG 1)	262
AGCUAGUACCGAGGAUAUACGUACAUGAGGAUCACCCAUGUAUACAUGGUUUAAUGAAACUACAUGUAGAAGGCGGUACUAGCA [Mat - Same State NG 2 - JL mod - D51] (Eterna round: R96, puzzle: Same State NG 2)	23.2

Alright, here's another sequence for you.
I'd like to know its apparent KD of MS2 coat protein. The sequence in question is CUGAGCGAUCGAGGAUAUCACGUCGAUUAGACGUGAGAAGGCGAUCAUAACAUGAGGAUCACCCAUGUAUUACAUGAAGCUCAG [SSNG1/4-A2] (Eterna round: R96, puzzle: Same State NG 1) 17.1

Origin of the recorded values: the supplement of paper PMC9170038
